Cited source: PubChem BioAssay

# composite z-score per entry
biological target: Left-right determination factor 2 (Homo sapiens) (UniProt O00292); experiment: LEFTY2 binders on small-molecule microarrays, primary screen, biochemical, small-molecule microarray, 635 nm fluorescence scan (AID 1110); settings: LEFTY2 binding, higher = more signal
Sequence (O00292 whole entry, looked up): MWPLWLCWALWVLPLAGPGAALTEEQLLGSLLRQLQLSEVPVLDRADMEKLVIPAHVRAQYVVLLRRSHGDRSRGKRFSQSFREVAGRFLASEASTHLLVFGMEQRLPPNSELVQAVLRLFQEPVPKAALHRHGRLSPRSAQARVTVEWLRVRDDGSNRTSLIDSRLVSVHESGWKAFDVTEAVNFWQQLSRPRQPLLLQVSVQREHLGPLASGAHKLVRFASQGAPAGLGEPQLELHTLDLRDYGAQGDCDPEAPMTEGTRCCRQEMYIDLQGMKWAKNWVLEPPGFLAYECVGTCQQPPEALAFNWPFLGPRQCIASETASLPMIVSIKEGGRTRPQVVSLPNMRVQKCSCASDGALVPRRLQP
PROPERTY_MEASURED: composite z-score

SMILES_STR: CCCC[C@H]1OB(O)C[C@H]2C1=C(COc1ccccc1)C[C@H]1C(=O)N(C)C(=O)[C@H]12
PROPERTY_MEASURED: composite z-score
MEASURED_RESULT: 0.283
--
SMILES_STR: COc1ccc(CCN2C(=O)[C@@]3(Cc4ccccc42)c2ccccc2C(=O)N(Cc2ccccc2C(F)(F)F)[C@H]3c2ccc(CO)cc2)cc1
PROPERTY_MEASURED: composite z-score
MEASURED_RESULT: 0.0259
--
SMILES_STR: CC(C)(C)OC(=O)CC[C@]12N=C(c3ccc(OCCCO)cc3)O[C@H]1c1ccccc1N(CCS(=O)(=O)c1ccccc1)C2=O
PROPERTY_MEASURED: composite z-score
MEASURED_RESULT: 0.497
--
SMILES_STR: COCCOC(=O)N1C(=O)[C@@]2(c3cc(C#CCCO)ccc31)[C@H](C(=O)Nc1nc3ccccc3s1)[C@H]1C(=O)O[C@H](c3ccccc3)[C@H](c3ccccc3)N1[C@@H]2c1ccc(OCCO)cc1
PROPERTY_MEASURED: composite z-score
MEASURED_RESULT: 0.774
--
SMILES_STR: COC(=O)[C@@]1(Cc2ccc(OC)cc2)[C@H]2c3cc(C(=O)N4CCCC4)n(Cc4ccc(OC)c(OC)c4)c3C[C@H]2CN1C(=O)c1ccccc1
PROPERTY_MEASURED: composite z-score
MEASURED_RESULT: 0.381
--
SMILES_STR: COC(=O)c1c(CC[C@@H](CO)NC(=O)N[C@@H](C)Cn2cc(C3(O)CCCCC3)nn2)oc(C(C)=O)c1C(=O)OC
PROPERTY_MEASURED: composite z-score
MEASURED_RESULT: 0.703
--
SMILES_STR: CCCC#C[Si](O[C@H](CC)c1cn([C@H](CO)Cc2ccccc2)nn1)(C(C)C)C(C)C
PROPERTY_MEASURED: composite z-score
MEASURED_RESULT: 0.728

====

test: small-molecule microarray binders of probe aEGFR, primary screen, biochemical, biotinylated probe, 635/667 nm fluorescence (AID 1097); conditions: higher = more signal;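 further: probe is a biotinylated anti-EGFR antibody binding compounds printed on slides; score combines fluorescence near 667 nm and signal to noise of each spot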
PROPERTY_MEASURED: composite z-score

COMPOUND: COc1ccc(CCNC(=O)[C@@]2(Sc3ccc(C)cc3)CC(=O)N(C3CCCCC3)[C@@H]2c2ccc(CO)cc2I)cc1
MEASURED_RESULT: 0.0414

COMPOUND: CC(=O)n1cc(C(O)C2C=CC3C(=O)N(C)C(=O)C3N2Nc2ccccc2)c2ccccc21 (centres undefined)
MEASURED_RESULT: -0.0644

COMPOUND: COC(=O)[C@@]1(Cc2ccc(F)cc2)[C@H]2c3cc(C(=O)N4CCCC4)n(Cc4cc(C)n(C)n4)c3C[C@H]2CN1C(=O)c1ccccc1
MEASURED_RESULT: 0.209

COMPOUND: COc1ccc([Si](C)(C)[C@H]2[C@H](CC(=O)N3CCC[C@H]3CO)O[C@@]3(C(=O)N(Cc4cccc(N5C(=O)c6cccc7cccc5c67)c4)c4ccccc43)[C@@H]2C)cc1
MEASURED_RESULT: -0.0549

COMPOUND: O=C1C2C=CC(C(O)C3CCCCC3)N(Nc3ccc([N+](=O)[O-])cc3)C2C(=O)N1c1ccccc1 (centres undefined)
MEASURED_RESULT: -0.226

COMPOUND: CCN(CC)c1ccc(N2CC=CC34O[C@@H]5/C=C\CCCOC(=O)C5[C@H]3C(=O)N(CCO)[C@@H]4C2=O)cc1 (some centres undefined)
MEASURED_RESULT: -0.286

COMPOUND: COCCOC(=O)N1C(=O)[C@@]2(c3cc(C#Cc4ccc(OC)cc4)ccc31)[C@H](C(=O)N1CCCCCCC1)[C@H]1C(=O)O[C@H](c3ccccc3)[C@H](c3ccccc3)N1[C@@H]2c1ccc(OCCO)cc1
MEASURED_RESULT: 0.4

COMPOUND: COC(=O)[C@@]1(Cc2ccc(F)cc2)[C@H]2c3cc(C(=O)N(C)C)n(Cc4nc5ccccc5[nH]4)c3C[C@H]2CN1C(=O)c1ccccc1
MEASURED_RESULT: 0.191

COMPOUND: CC(C)c1ccc(NN2C(C(O)c3cc(C(F)(F)F)cc(C(F)(F)F)c3)C=CC3C(=O)N(c4ccccc4)C(=O)C32)cc1 (centres undefined)
MEASURED_RESULT: -0.152

COMPOUND: CC(=O)NCCCC[C@@H]1NC(=O)[C@@H]2C[C@H](C(=O)NCCCCCCNC(=O)CS)[C@H](c3cccc(OCCO)c3)N2C1=O
MEASURED_RESULT: -0.112

COMPOUND: CCOC(=O)C[C@H]1[C@H](OC(=O)Cc2ccc3c(c2)OCO3)[C@@H](NC(=O)c2ccc(-c3ccccc3)cc2)c2cc(OCCCO)ccc2N1C(=O)c1ccc2ccccc2n1
MEASURED_RESULT: -0.0661

COMPOUND: O=C1O[C@H](c2ccccc2)[C@H](c2ccccc2)N2[C@H]1[C@@H](C(=O)Nc1nc3ccccc3s1)[C@]1(C(=O)Nc3ccc(C#CC4(O)CCCCCC4)cc31)[C@H]2c1ccc(OCCO)cc1
MEASURED_RESULT: 0.0589

COMPOUND: C=CCC(OC(C)=O)[C@@H]1[C@@H](N(Cc2ccc(-c3cccc(C(F)(F)F)c3)o2)C(=O)c2ccc(-c3ccccc3)cc2)c2cc(OCCCO)ccc2N1C(=O)c1ccc(-c2ccccc2)cc1 (some centres undefined)
MEASURED_RESULT: -0.15

COMPOUND: CCCCC(=C=CC[C@@H](O)c1ccccc1OCCO)CCO
MEASURED_RESULT: -0.199

====

experiment: binders of probe aFGF10 on microarray, primary screen, stem cell growth factor project, biochemical, small-molecule microarray, fluorescence 635/667 (AID 1071); settings: higher = more signal;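 further: score merges 667 nm spot intensity and signal to noise from triplicate slides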
# composite z-score >= 0.8 gives yes, anything below gives no

COMPOUND: O=C1O[C@@H](c2ccccc2)[C@@H](c2ccccc2)N2[C@@H](c3ccc(OCCO)cc3)[C@]3(C(=O)Nc4ccccc43)[C@@H](C(=O)NC[C@H](O)c3ccccc3)[C@H]12
LABEL_VALUE: no
--
COMPOUND: C=CCOC(=O)[C@@H]1[C@H]2C(=O)O[C@H](c3ccccc3)[C@H](c3ccccc3)N2[C@H](c2ccc(OCCOC(=O)[C@@H]3C[C@@H]4C(=O)N[C@@H](Cc5ccccc5)C(=O)N4[C@@H]3c3ccc(O)cc3)cc2)[C@@]12C(=O)Nc1ccc(I)cc12
LABEL_VALUE: no
--
COMPOUND: COC(=O)[C@@]1(Cc2ccc(F)cc2)[C@H]2c3cc(C(=O)N(C)C)n(CC4CC4)c3C[C@H]2CN1C(=O)c1ccccc1
LABEL_VALUE: yes
--
COMPOUND: CC(=O)n1cc(C(O)C2C=CC3C(=O)N(C)C(=O)C3N2Nc2ccccc2)c2ccccc21 (stereo unspecified)
LABEL_VALUE: yes
--
COMPOUND: CC(C)[C@@H](CO)NC(=O)[C@H]1[C@@H](c2ccccc2)N(c2ccccc2)O[C@@H]1C
LABEL_VALUE: no

====

test: basal S. cerevisiae growth modulation, no modifier, primary screen, OD600, strain BY4716, 24 h, basal condition (AID 1173); settings: OD600, 24 h, higher = more signal, called active from +8 up or from −8 down
Activity calls are given as the source filed them.

MOLECULE: O=C1OCCC/C=C\[C@H]2OC34C=CCN(Cn5nnc6ccccc65)C(=O)[C@H]3N(CCO)C(=O)[C@@H]4C12 (some centres not stated)
z-score: -0.0322 (inactive)
--
MOLECULE: CN1C(=O)C2C=CC(C(O)c3ccccc3)N(Nc3ccccc3)C2C1=O (configuration not stated)
z-score: -0.506 (inactive)
--
MOLECULE: COCCOC(=O)N1C(=O)[C@@]2(c3cc(C#CCNC(N)=O)ccc31)[C@H](C(=O)NC[C@H](O)c1ccccc1)[C@H]1C(=O)O[C@H](c3ccccc3)[C@H](c3ccccc3)N1[C@@H]2c1ccccc1OCCO
z-score: 1.39 (inactive)
--
MOLECULE: COCCOC(=O)N1C(=O)[C@@]2(c3cc(C#CC4=CCCCC4)ccc31)[C@H](C(=O)Nc1nc3ccccc3s1)[C@H]1C(=O)O[C@H](c3ccccc3)[C@H](c3ccccc3)N1[C@@H]2c1ccc(OCCO)cc1
z-score: 1.05 (inactive)
--
MOLECULE: O=C1OCCC/C=C\[C@H]2OC34C=CCN(Cc5ccccc5)C(=O)[C@H]3N(CCCCCCO)C(=O)[C@@H]4C12 (some centres not stated)
z-score: -0.908 (inactive)
--
MOLECULE: COc1ccc(C(O)C2C=CC3C(=O)N(c4ccccc4)C(=O)C3N2Nc2ccc(C(C)C)cc2)cc1OCc1ccccc1 (configuration not stated)
z-score: -1.78 (inactive)
--
MOLECULE: COCCCNC(=O)C1N=C(c2ccc(OCCCO)cc2)N(c2ccccc2)O1 (configuration not stated)
z-score: -0.5 (inactive)
